# TGI per entry
tested on: SK-MEL-5 melanoma; experiment: NCI tumour cell line growth inhibition, 48 h
Numeric answer only, unit µM assumed.

Specify TGI for `N#Cc1c(-c2ccccc2)cc(-c2ccccc2)n(CC(=O)NO)c1=O` and stop.
4.71

Specify TGI for `O=[N+]([O-])c1cccnc1NCC1(CO)CCCC1` and stop.
30.9

Specify TGI for `c1ccc(CSc2nc(N3CCCCC3)c3cn[nH]c3n2)cc1` and stop.
31

Specify TGI for `CCOC(=O)/C=C(\C(=O)OCC)n1ccc(=O)n(Cc2cnnn2COCCOC(C)=O)c1=O` and stop.
54.3

###

test system: SK-MEL-2 melanoma; experiment: NCI tumour cell line growth inhibition, 48 h; in the data active means GI50 below about 0.43 µM; inactive means the rest
Assign a class; possible classes are YES for active, NO for inactive

Reference set (2 entries):
{"compound": "Cc1cc2c([nH]1)CSc1cc(S(=O)(=O)c3ccccc3)c(=O)[nH]c1-2", "label-value": "NO"}
{"compound": "c1ccc(-c2c(-c3ccccc3)[n+](Cc3ccc4ccccc4c3)c(-c3cccc4ccccc34)n2Cc2ccc3ccccc3c2)cc1", "label-value": "YES"}

--- query ---
Recorded call for Clc1ccc(CCC(Cn2ccnc2)Sc2c(Cl)cccc2Cl)cc1 (stereo not drawn) ?
NO

###

# TGI per entry
tested on: SK-MEL-28 melanoma; test: NCI tumour cell line growth inhibition, 48 h
Numeric answer only, unit µM assumed.

{"given-smiles": "C=C1C(=O)O[C@H]2[C@H]1CC/C(COC(=O)CCCCCCC(=O)OC/C1=C/CC[C@@]3(C)O[C@H]3[C@H]3OC(=O)C(=C)[C@@H]3CC1)=C\\CC[C@@]1(C)O[C@@H]21", "TGI (µM)": 10.2}

Specify TGI for `O=C1Nc2ccccc2/C1=C/C(=N/c1nnc(-c2ccccc2)s1)c1ccccc1` and stop.
6.93

###

# TGI per entry
test system: CCRF-CEM leukemia; assay: NCI tumour cell line growth inhibition, 48 h

// below: answered molecules
{"molecule": "COc1cc(Nc2cnc3cc(N)ccc3n2)cc(OC)c1OC", "TGI": "> 100 µM"}
{"molecule": "C=Cc1ccccc1 (tested in a mixture with another compound)", "TGI": "> 75 µg/mL"}
{"molecule": "CC(C)C1CNC2N1C(=O)C2(C)OCc1ccccc1 (stereo unspecified)", "TGI": "> 100 µM"}
{"molecule": "Nc1cc2c([nH]c[n+]2CC#CCCl)c(SCC#CCCl)n1", "TGI": "> 100 µM"}
{"molecule": "N#CCN1c2ccccc2CCC1Cl (stereo unspecified)", "TGI": "> 10 µM"}

Report value: TGI, system: CCRF-CEM leukemia, molecule: CCOc1ccccc1NC(=O)CC1Sc2ccccc2NC1=O (stereo unspecified)
> 100 µM

Report value: TGI, system: CCRF-CEM leukemia, molecule: COC(=O)C(C(=O)C(=O)Nc1nc2ccc([N+](=O)[O-])cc2s1)c1nc2ccc(Cl)cc2[nH]c1=O (stereo unspecified)
> 100 µM

Report value: TGI, system: CCRF-CEM leukemia, molecule: `O=C(N/N=C(/COc1ccccc1Cl)N=Cc1cccnc1)c1ccncc1`
> 100 µM

Report value: TGI, system: CCRF-CEM leukemia, molecule: `Cc1c2ccccc2cc2nc3ccccc3n12`
> 10 µM

Report value: TGI, system: CCRF-CEM leukemia, molecule: CC(=O)CC1(OC(=O)C2C(C=C(C)C)C2(C)C)C(=O)Nc2ccccc21 (stereo unspecified)
> 100 µM

Report value: TGI, system: CCRF-CEM leukemia, molecule: `COc1ccc(=[O+]C)c2nssc1-2`
> 100 µM
